tested on: Escherichia coli; assay: Antibacterial activity against Escherichia coli ATCC 25922 after overnight incubation by CLSI M7-A9 based method; assay type: functional

chemical_smiles	measured_on	MIC
C[C@H](c1ccccc1)N(CC(N)=O)C(=O)CN(C(=O)CN(Cc1cn(CCN)n[n+]1C)C(=O)CN(C(=O)CN(C(=O)CN(Cc1cn(CCN)n[n+]1C)C(=O)CN(C(=O)CN(C(=O)CNCc1cn(CCN)n[n+]1C)[C@H](C)c1ccccc1)[C@H](C)c1ccccc1)[C@H](C)c1ccccc1)[C@H](C)c1ccccc1)[C@H](C)c1ccccc1	Escherichia coli	> 1.6 µg/mL
C[C@H](c1ccccc1)N(CC(N)=O)C(=O)CN(C(=O)CN(Cc1cn(Cc2ccccc2)n[n+]1C)C(=O)CN(C(=O)CN(C(=O)CN(Cc1cn(Cc2ccccc2)n[n+]1C)C(=O)CN(C(=O)CN(C(=O)CNCc1cn(Cc2ccccc2)n[n+]1C)[C@H](C)c1ccccc1)[C@H](C)c1ccccc1)[C@H](C)c1ccccc1)[C@H](C)c1ccccc1)[C@H](C)c1ccccc1	Escherichia coli	> 1.6 µg/mL

Origin of the recorded values: ChEMBL document CHEMBL4699440
